- Test system: NCI-H522
- Protocol details: NCI tumour cell line growth inhibition, 48 h
Active and inactive are the calls of the source. No stated cut-off is given here; in the data, active = GI50 up to about 1.1 µM and inactive = higher.
Mark one answer only. Choices: T (active), F (inactive)

CC(C)OP(=O)(OC(C)C)/C(=N/Nc1ccccc1[N+](=O)[O-])NCCN/C(=N\Nc1ccccc1[N+](=O)[O-])P(=O)(OC(C)C)OC(C)C; F
CN(C)c1ccc(/C=C2\CCc3ccccc3C2=O)cc1Br; F

Now take the following compound into account.
Exam item: Recorded call for `O=C(Nc1ccc([N+](=O)[O-])cc1Cl)c1cccc([N+](=O)[O-])c1O` ?
Marked response: T

----------
- Tested on: OVCAR-5
- Protocol details: NCI tumour cell line growth inhibition, 48 h
Activity calls are given as the source filed them. No stated cut-off is given here; in the data, active = GI50 up to about 1.1 µM and inactive = higher.
Measured endpoint: GI50

Here is how some compounds turned out for GI50.
O=C1Nc2ccc(S(=O)(=O)N(CCO)CCO)cc2/C1=C1/Nc2ccccc2C1=O; > 100 µM (inactive)
COC(=O)c1sc2c(c1C(=O)OC)/C(=N/c1ccc(OC)cc1)S/C2=N\c1ccc(OC)cc1; 1.73 µM (inactive)
COc1ccc2nc3c([N+](=O)[O-])ccc4c3c(c2c1)N(CCCN(C)C)C(=S)N4CCCN(C)C; 14.6 µM (inactive)
CCN(CC)C(=S)Nc1ccc(-c2cc3ccc(O)cc3oc2=O)cc1; 26.2 µM (inactive)

Now examine the next entry.
Exam item: Complete the entry with GI50 for `O=C(c1ccccc1)c1cn(/N=C\c2ccccc2)c(=O)nc1-c1ccccc1`
Marked response: > 100 µM (inactive)

----------
- System: SF-268
- Protocol details: NCI tumour cell line growth inhibition, 48 h
Activity calls are given as the source filed them. Cut-off read from the data, not from the text of the source: active = GI50 up to about 1.1 µM and inactive = higher.
Mark one answer only. Choices: active, inactive

Exam item: Recorded call for `Cc1ccc(S(=O)(=O)N2CCC(=O)c3cc(Br)ccc32)cc1` ?
Marked response: inactive

Exam item: Recorded call for C[C@]12CCC3c4ccc(O)cc4CC[C@H]3C1CC(=O)N(N)C2=O (some centres undefined) ?
Marked response: inactive

Exam item: Recorded call for CCOP(=O)(OCC)C(C)(CC)NC1=NC(C(F)(F)F)(C(F)(F)F)NC(=O)N1 (centres undefined) ?
Marked response: inactive

Exam item: Recorded call for `CCN(CC)C(=S)Nc1ccc(-c2cc3ccc(O)cc3oc2=O)cc1` ?
Marked response: inactive

Exam item: Recorded call for CC1OC(c2ccc3c(OCc4ccccc4)cccc3c2O)CC(OCc2ccccc2)[C@H]1OCc1ccccc1 (some centres undefined) ?
Marked response: inactive

Exam item: Recorded call for `COc1ccc(/C=C2\Oc3cc(OC(C)=O)ccc3C2=O)cc1` ?
Marked response: inactive

Exam item: Recorded call for `CSC(=S)N/N=C/c1ccccc1` ?
Marked response: inactive

----------
- Tested on: IGROV-1
- Protocol details: NCI tumour cell line growth inhibition, 48 h
Active and inactive are the calls of the source. No stated cut-off is given here; in the data, active = GI50 up to about 1.1 µM and inactive = higher.
Mark one answer only. Choices: active, inactive

Clc1cc(Cl)c2n[se]nc2c1; inactive
CC1OC(OC2C(OC(=O)[C@@H]3CC(C)(C)C[C@H]4C5=CC[C@@H]6[C@@]7(C)C[C@H](O)[C@H](OC8OC(CO)C(O)C(O)C8O)[C@@](C)(CO)[C@@H]7[C@H](O)C[C@@]6(C)[C@]5(C)CC[C@@]34C)OCC(O)C2O)C(O)C(O)C1O (stereo partly drawn); inactive
COc1cc2c(cc1OCCCCOc1cc3c(cc1OC)C(=O)N1CCC[C@H]1C(=O)N3)N=C[C@@H]1CCCN1C2=O; inactive
COC(=O)C(=O)C(C(=O)C=C(C)C)C(=O)C(=O)Nc1cc(C(F)(F)F)ccc1Cl (stereo not drawn); inactive

Exam item: Recorded call for CCCCN1C(=O)CC2[C@@H]3CCc4cc(OC)ccc4C3CC[C@]2(C)C1=O (stereo partly drawn) ?
Marked response: inactive

Exam item: Recorded call for `O=P(CN1CCOCC1)(c1ccccc1)c1ccccc1` ?
Marked response: inactive

Exam item: Recorded call for `CCN(CC)C(=S)Nc1ccc(-c2cc3ccc(O)cc3oc2=O)cc1` ?
Marked response: inactive

Exam item: Recorded call for `O=C1c2cc([N+](=O)[O-])sc2C(=O)c2ccsc21` ?
Marked response: active
